Reference source: ChEMBL document CHEMBL3808273

Listed here: items and their measured pIC50.
- Tested on: HepG2
- EXPERIMENTAL DETAILS: Cytotoxicity against human HepG2 cells assessed as growth inhibition after 48 hrs by MTT assay
- Assay type: functional, cell-based
- EXPERIMENTAL CONTEXT: HepG2, 48 h
pIC50: −log10 of the molar value.

C[C@H]1CC[C@@]2(OC1)O[C@H]1C[C@H]3[C@@H]4CC[C@H]5C[C@@H](O)CC[C@]5(C)[C@H]4CC[C@]3(C)[C@H]1[C@@H]2C | < 4.30

Which pIC50 value is on record for C[C@@H]1CO[C@]2(O[C@@H]3C[C@@H]4[C@H]5CC[C@@H]6C[C@H](O[C@H]7O[C@@H](CO)[C@@H](O)[C@@H](O)[C@@H]7O[C@H]7O[C@@H](CO)[C@H](O)[C@@H](O)[C@@H]7O)CC[C@@]6(C)[C@@H]5CC[C@@]4(C)[C@@H]3[C@H]2C)[C@H](O)C1 ?
< 4.30

// query: C[C@@H]1C(=O)O[C@H]2C[C@H]3[C@@H]4CC[C@H]5C[C@@H](O)[C@@H](O)C[C@]5(C)[C@H]4CC[C@]3(C)[C@H]21
< 4.30

// query: C[C@H]1CC[C@@]2(OC1)O[C@H]1C[C@H]3[C@@H]4CC[C@H]5C[C@@H](O[C@@H]6O[C@H](CO)[C@H](O)[C@H](O)[C@H]6O[C@@H]6O[C@H](CO)[C@@H](O)[C@H](O)[C@H]6O)CC[C@]5(C)[C@H]4CC[C@]3(C)[C@H]1[C@@H]2C
5.33
